Hey, just so you know, these numbers are from patent US7041785B1.

Biological target: B2 receptor (Cavia porcellus, UniProt O70526)
Sequence (O70526 1-372): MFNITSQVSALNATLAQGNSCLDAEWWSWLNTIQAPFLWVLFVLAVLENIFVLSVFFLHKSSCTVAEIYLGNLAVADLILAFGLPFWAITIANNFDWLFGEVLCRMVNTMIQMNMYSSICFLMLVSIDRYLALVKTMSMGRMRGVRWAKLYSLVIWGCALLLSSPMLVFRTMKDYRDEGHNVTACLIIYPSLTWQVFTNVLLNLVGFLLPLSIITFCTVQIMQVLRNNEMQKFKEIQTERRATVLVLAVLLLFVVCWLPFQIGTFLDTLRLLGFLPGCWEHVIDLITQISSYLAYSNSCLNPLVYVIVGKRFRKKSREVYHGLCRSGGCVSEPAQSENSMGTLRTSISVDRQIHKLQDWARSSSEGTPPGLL
Test: cell-based
Non-standard residues stand in square brackets, D forms with d. Residues, ends and D or L forms follow the SMILES beside them. Oic = O=C(O)[C@@H]1C[C@@H]2CCCC[C@@H]2N1; Hyp = O=C(O)[C@@H]1C[C@@H](O)CN1; dTic = O=C(O)[C@H]1Cc2ccccc2CN1; 2Thi = N[C@@H](Cc1cccs1)C(=O)O
Listed here: items and their measured Kb.
readoutName: Kb

- compound: "N=C(N)NCCC[C@H](N)C(=O)N1CCC[C@H]1C(=O)N1C[C@H](O)C[C@H]1C(=O)NCC(=O)N[C@@H](Cc1cccs1)C(=O)N[C@@H](CO)C(=O)N1Cc2ccccc2C[C@@H]1C(=O)N1[C@H](C(=O)O)C[C@@H]2CCCC[C@@H]21 [Compound 32, (Hyp^3, Thi^5, D-Tic^7, Oic^8)desArg^9BK, reference compound] (H-RP[Hyp]G[2Thi]S[dTic][Oic]-OH; N-terminus and C-terminus assumed)"
  readoutName: "Kb"
  testResult: "> 7.59 µM"
- compound: "CC(=O)N[C@@H](CCCCN)C(=O)N[C@@H](CCCNC(=N)N)C(=O)N1CCC[C@H]1C(=O)N1C[C@H](O)C[C@H]1C(=O)NCC(=O)N[C@@H](Cc1ccccc1)C(=O)N[C@@H](CO)C(=O)N1CCC[C@H]1C(=O)N[C@@H](CC(C)C)C(=O)O"
  readoutName: "Kb"
  testResult: "> 9.55 µM"
- compound: "N=C(N)NCCC[C@@H](N)C(=O)N[C@@H](CCCNC(=N)N)C(=O)N1CCC[C@H]1C(=O)N1C[C@H](O)C[C@H]1C(=O)NCC(=O)N[C@@H](Cc1ccccc1)C(=O)N[C@@H](CO)C(=O)N[C@H](Cc1ccccc1)C(=O)N[C@@H](Cc1ccccc1)C(=O)O [Compound 6, D-Arg(Hyp^3, D-Phe^7)desArg^9BK] (H-[dR]RP[Hyp]GFS[dF]F-OH; N-terminus and C-terminus assumed)"
  readoutName: "Kb"
  testResult: "> 8.91 µM"
- compound: "N=C(N)NCCC[C@@H](N)C(=O)N[C@@H](CCCNC(=N)N)C(=O)N1CCC[C@H]1C(=O)N1C[C@H](O)C[C@H]1C(=O)NCC(=O)N[C@@H](Cc1cccs1)C(=O)N[C@@H](CO)C(=O)N1Cc2ccccc2C[C@@H]1C(=O)N1[C@H](C(=O)O)C[C@@H]2CCCC[C@@H]21 [Compound 31, reference compound] (H-[dR]RP[Hyp]G[2Thi]S[dTic][Oic]-OH; N-terminus and C-terminus assumed)"
  readoutName: "Kb"
  testResult: "> 7.59 µM"
- compound: "CC(C)C[C@H](NC(=O)[C@@H]1CCCN1C(=O)[C@H](CO)NC(=O)[C@H](Cc1ccccc1)NC(=O)CNC(=O)[C@@H]1C[C@@H](O)CN1C(=O)[C@@H]1CCCN1C(=O)[C@H](CCCNC(=N)N)NC(=O)[C@H](N)CCCNC(=N)N)C(=O)O"
  readoutName: "Kb"
  testResult: "> 9.55 µM"
